Cited source for all entries: the supplement of paper PMC8728848

target: GlcNAc(b1-3)Gal(b1-4)GlcNAc(b1-3)Gal(b1-4)GlcNAc(b1-2)Man(a1-3)[GlcNAc(b1-3)Gal(b1-4)GlcNAc(b1-3)Gal(b1-4)GlcNAc(b1-2)Man(a1-6)]Man(b1-4)GlcNAc(b1-4)[Fuc(a1-6)]GlcNAc; assay: glycan array binding signal (z-score within array); higher = stronger binding; details: glycan notation: IUPAC condensed, linker removed
The sample as a whole holds a higher share of the strongest signals than the screen did.
# maps each entry to its glycan array binding signal (z-score)
Write the number on its own, no unit after it.

According to the records, this binder BTL (Bryothamnion triquetrum) (protein) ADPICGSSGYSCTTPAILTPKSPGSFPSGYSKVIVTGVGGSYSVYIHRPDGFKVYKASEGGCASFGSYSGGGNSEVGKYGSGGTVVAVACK displays glycan array binding signal (z-score) of 4.09

Let us examine a further case.
According to the records, this binder HPAIIITrx (Helix pomatia), Q1KM18 (protein) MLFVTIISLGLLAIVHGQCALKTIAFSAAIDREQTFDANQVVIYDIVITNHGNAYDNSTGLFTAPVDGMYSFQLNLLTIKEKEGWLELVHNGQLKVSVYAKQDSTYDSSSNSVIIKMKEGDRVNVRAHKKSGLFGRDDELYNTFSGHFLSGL displays glycan array binding signal (z-score) of -0.228
